Cited source for all entries: patent US9920053B2

molecular target: human serotonin transporter (SERT) (Homo sapiens (Human), UniProt P31645); assay: Scintillation Proximity Assay (SPA) for human SERT binding ([3H]citalopram); conditions: recombinant human SERT, CHO membranes
Sequence (P31645 whole entry): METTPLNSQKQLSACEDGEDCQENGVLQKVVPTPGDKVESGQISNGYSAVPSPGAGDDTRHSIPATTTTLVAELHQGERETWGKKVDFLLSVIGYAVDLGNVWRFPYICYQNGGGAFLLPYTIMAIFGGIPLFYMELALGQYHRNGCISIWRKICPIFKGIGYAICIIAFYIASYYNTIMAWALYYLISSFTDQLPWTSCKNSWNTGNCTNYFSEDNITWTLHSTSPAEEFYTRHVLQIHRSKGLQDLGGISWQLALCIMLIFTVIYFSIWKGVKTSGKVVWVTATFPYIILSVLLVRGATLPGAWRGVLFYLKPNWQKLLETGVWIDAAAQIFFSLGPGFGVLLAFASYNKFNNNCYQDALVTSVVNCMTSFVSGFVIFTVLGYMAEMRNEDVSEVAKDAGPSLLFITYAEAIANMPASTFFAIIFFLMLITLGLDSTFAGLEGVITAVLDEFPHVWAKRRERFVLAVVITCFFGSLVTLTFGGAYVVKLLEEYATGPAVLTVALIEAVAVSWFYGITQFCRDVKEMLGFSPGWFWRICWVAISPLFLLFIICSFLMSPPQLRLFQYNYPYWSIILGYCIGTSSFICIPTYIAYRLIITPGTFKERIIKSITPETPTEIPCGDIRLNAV
READOUT TYPE: pIC50
Please note pIC50 is a logarithmic value: minus log10 of concentration in mol/L. Answer with that number alone.

## Input Please look up its pIC50: NCC1(O)CCN(c2nc(Oc3cccc(F)c3)cc(C(F)(F)F)n2)CC1 [Example 11]
## Output 5.12

## Input Please look up its pIC50: Cl.NCC1(O)CCN(c2nc(Oc3cccc(F)c3)cc(C(F)(F)F)n2)CC1 [Example 12, hydrochloride]
## Output 5.06

## Input Please look up its pIC50: CN(C)CC1(O)CCN(c2nc(Oc3cccc(F)c3)cc(C(F)(F)F)n2)CC1 [Example 1]
## Output 4.87

## Input Please look up its pIC50: NCC1(F)CCN(c2nc(Oc3cccc(F)c3)cc(C(F)(F)F)n2)CC1 [Example 13]
## Output 5.14

## Input Please look up its pIC50: CC(C)(C)NCC1(O)CCN(c2nc(Oc3cccc(F)c3)cc(C(F)(F)F)n2)CC1 [Example 9]
## Output 4.95
